Test system: mu opiate receptor (MOR)
assay_info: MOR agonist activity using [35S]GTPγS binding assay in striatal membranes
Format: biochemical
recorded_conditions: Series B; 1 μM compound, relative to DAMGO
readout: % DAMGO (1 μM) (%)
# value in %; strip the unit string

Noted for COc1ccc(CCC(O)CC2c3c(cc4c(c3OC)OCO4)CCN2C)cc1 (stereo not shown) [Compound B0048] : its % DAMGO (1 μM) reads 87.8

Noted for COc1c2c(cc3c1C(CC(=O)CCc1ccc(O)cc1)[N+](C)(C)CC3)OCO2 (stereo not shown) [Compound B0028] : its % DAMGO (1 μM) reads 131.0

Noted for COc1cc(OC)cc(C(=O)CC2c3c(cc4c(c3OC)OCO4)CC[N+]2(C)C)c1 (stereo not shown) [Compound B0035] : its % DAMGO (1 μM) reads 93.2

Noted for COc1ccc(C(=O)CC2c3c(cc4c(c3OC)OCO4)CC[N+]2(C)C)c(F)c1 (stereo not shown) [Compound B0027] : its % DAMGO (1 μM) reads 100.0
